test: Test 2: octanol/phosphate buffer partition coefficient of BPS with various cations; assay type: physicochemical; settings: octanol/phosphate buffer pH 7, 37° C., BPS 240 μg/ml, cation added to give charges 20 times more
Structures can show the parent of a compound that is named as a salt.
VALUE KIND: PC of BPS, Excess × 20
// response body must contain only the number

Example cases with answers are listed next.
# COMPOUND, PC of BPS, Excess × 20
data = [
    ("CCCNC(C)(C)COC(=O)c1ccccc1 [Meprylcaine hydrochloride, reference compound]", 53.3),
    ("CCCC[N+](CCCC)(CCCC)Cc1ccccc1.[Cl-] [Tributylbenzylammonium chloride]", 140),
    ("CC(=O)O.CCCCCCCC/C=C\\CCCCCCCCN [Oleylamine acetate]", 473),
]

What measured PC of BPS, Excess × 20 goes with CC(C)(C)CC(C)(C)c1ccc(OCCOCC[N+](C)(C)Cc2ccccc2)cc1 [Benzethonium chloride] ?
1180

Also, CCCCCCCCCCCCCCCCCC[N+](C)(C)Cc1ccccc1.[Cl-] [Stearyldimethylbenzylammonium chloride] please.
1350

Also, CCCCCCCCCCCC[N+](C)(C)C.[Cl-] [Lauryltrimethylammonium chloride] please.
985

Also, CC(=O)O.CCCCCCCCCCCCCCCCCCN [Stearylamine acetate] please.
158

Also, CCCCCCCCCCCC[n+]1ccccc1.[Cl-] [Laurylpyridinium chloride] please.
1200
